study target: HLA-C*15:02
procedure details: IEDB peptide-MHC binding, purified MHC/direct/fluorescence; filed as Kd, often an IC50 or EC50 that approximates it; bounds were set here for any values at or beyond the usual limits of such assays
measurement context: source organism: Yersinia pseudotuberculosis IP 31758
test readout: Kd (µM)
Respond numerically; units are µM and should not be typed.

Incoming: # returns recorded Kd (system: HLA-C*15:02) for FQWWRSHPL
Outgoing: 1.4

###

study target: HLA-B*15:17
procedure details: IEDB peptide-MHC binding, purified MHC/direct/fluorescence; filed as Kd, often an IC50 or EC50 that approximates it; bounds were set here for any values at or beyond the usual limits of such assays
measurement context: source organism: Cryptosporidium parvum Iowa II
pKd: −log10 of the molar value.
test readout: pKd

Incoming: Fill in the blank: the reported pKd of TVFRNQNRV is ____.
Outgoing: ≤ 4.70
